B1: TPR 5TU (parent)
chain: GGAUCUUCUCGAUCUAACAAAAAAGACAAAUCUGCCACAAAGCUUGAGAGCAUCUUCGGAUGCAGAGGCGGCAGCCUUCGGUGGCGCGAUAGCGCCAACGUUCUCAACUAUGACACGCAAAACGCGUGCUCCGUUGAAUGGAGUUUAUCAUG

Variants of: B1
EXPERIMENT SUMMARY: polymerase ribozyme fitness, log enrichment relative to wild type (log ratio); higher = more active; in vitro selection for triplet polymerase activity
Fewer inactive variants are shown than the library holds.
ASSAY ENDPOINT: polymerase ribozyme fitness (log ratio)
Format: numeric value only, no unit, no commentary.

[Q] Which polymerase ribozyme fitness (log ratio) is reported for this variant? C5G A12C A40U G58C G83U C118G
[A] -3.96

[Q] Cool, now G59A C87U U101G G136C
[A] -2.91

[Q] Cool, now A91G C108U
[A] -3.97

[Q] Cool, now C85G C96G
[A] -3.49

[Q] Cool, now A49C A106G
[A] -4.12

[Q] Cool, now C18G A19U G83U C95U C118U U144A
[A] -3.01

[Q] Cool, now A17U U101G
[A] 0.484

[Q] Cool, now A19U G58A G94U C116A A119C
[A] -0.758

[Q] Cool, now A3C G86A C125U
[A] -2.79

[Q] Cool, now A28G U31G C36A U56A C95A G141C
[A] -3.69

[Q] Cool, now G92U C95U A137U
[A] -4.11

[Q] Cool, now A24U G74C
[A] -4.19

[Q] Cool, now C72U C95U C96U U146A
[A] -2.06
